molecular target: C3b (Homo sapiens); construct: Biotinylated C3b was captured site-specifically on a streptavidin chip; test: SPR kinetic analysis of binding to immobilized C3b (Biacore, single cycle kinetics); conditions: Table 1, N-terminal analogs; read-out: KD: binding constant from SPR
pKd: −log10 of the molar value. Bridge positions count the residues as written; N and C are the ends. Square brackets hold non-standard residues; d marks the D form. Peptide text beside a SMILES is read from it. Trp(1-Me) = Cn1cc(C[C@H](N)C(=O)O)c2ccccc21; NMeI = CC[C@H](C)[C@H](NC)C(=O)O; Sar = CNCC(=O)O
Recorded Endpoint: pKd

>>> assay_result("CC[C@H](C)[C@H](NC(=O)[C@@H](N)Cc1ccccc1)C(=O)N[C@H]1CSSC[C@@H](C(=O)N(C)[C@H](C(N)=O)[C@@H](C)CC)NC(=O)[C@H](CCCNC(=N)N)NC(=O)[C@H](Cc2c[nH]cn2)NC(=O)[C@H](C)NC(=O)CN(C)C(=O)[C@H](Cc2c[nH]c3ccccc23)NC(=O)[C@H](CC(=O)O)NC(=O)[C@H](CCC(N)=O)NC(=O)[C@H](Cc2cn(C)c3ccccc23)NC(=O)[C@H](C(C)C)NC1=O [compound 5] (H-FICV[Trp(1-Me)]QDW[Sar]AHRC[NMeI]-NH2; disulfide 3-13)")
8.80

----------
assay: Solubility in WFI and DPBS; UPLC C18 retention time as hydrophobicity; conditions: UPLC analysis on a C18 column
Recorded Endpoint: Hydrophobicity Retention Time

>>> assay_result("CC[C@H](C)[C@H](NC(C)=O)C(=O)N[C@H]1CSSC[C@@H](C(=O)N[C@H](C(N)=O)[C@@H](C)O)NC(=O)[C@H](CCCNC(=N)N)NC(=O)[C@H](Cc2c[nH]cn2)NC(=O)[C@H](C)NC(=O)CNC(=O)[C@H](Cc2c[nH]c3ccccc23)NC(=O)[C@H](CC(=O)O)NC(=O)[C@H](CCC(N)=O)NC(=O)[C@H](Cc2cn(C)c3ccccc23)NC(=O)[C@H](C(C)C)NC1=O [4(1MeW), reference compound]")
"5.09 min"

----------
biological target: C3b (Homo sapiens, UniProt P01024); construct: Biotinylated C3b was captured site-specifically on a streptavidin chip; test: SPR kinetic analysis of binding to immobilized C3b (Biacore, single cycle kinetics); conditions: Table 1, N-terminal analogs; read-out: KD: binding constant from SPR
Sequence (P01024 23-667 limits assumed): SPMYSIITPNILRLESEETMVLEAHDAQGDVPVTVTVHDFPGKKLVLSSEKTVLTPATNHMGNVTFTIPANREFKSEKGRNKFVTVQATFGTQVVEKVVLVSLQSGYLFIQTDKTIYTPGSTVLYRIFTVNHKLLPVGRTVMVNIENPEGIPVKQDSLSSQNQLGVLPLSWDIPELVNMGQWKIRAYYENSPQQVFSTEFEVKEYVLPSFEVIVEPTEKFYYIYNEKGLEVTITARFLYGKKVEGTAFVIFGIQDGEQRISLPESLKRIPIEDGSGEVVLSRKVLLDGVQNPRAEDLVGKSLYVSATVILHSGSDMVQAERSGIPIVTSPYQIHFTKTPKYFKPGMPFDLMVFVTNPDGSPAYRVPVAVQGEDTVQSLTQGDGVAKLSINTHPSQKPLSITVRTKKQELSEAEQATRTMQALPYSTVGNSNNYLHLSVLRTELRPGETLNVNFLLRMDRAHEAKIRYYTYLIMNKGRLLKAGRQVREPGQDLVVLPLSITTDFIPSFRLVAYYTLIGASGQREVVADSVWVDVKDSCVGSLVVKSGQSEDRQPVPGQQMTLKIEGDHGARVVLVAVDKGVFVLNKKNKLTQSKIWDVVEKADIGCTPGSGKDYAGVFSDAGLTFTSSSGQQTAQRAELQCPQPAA
Sequence (P01024 749-1663 partner limits assumed): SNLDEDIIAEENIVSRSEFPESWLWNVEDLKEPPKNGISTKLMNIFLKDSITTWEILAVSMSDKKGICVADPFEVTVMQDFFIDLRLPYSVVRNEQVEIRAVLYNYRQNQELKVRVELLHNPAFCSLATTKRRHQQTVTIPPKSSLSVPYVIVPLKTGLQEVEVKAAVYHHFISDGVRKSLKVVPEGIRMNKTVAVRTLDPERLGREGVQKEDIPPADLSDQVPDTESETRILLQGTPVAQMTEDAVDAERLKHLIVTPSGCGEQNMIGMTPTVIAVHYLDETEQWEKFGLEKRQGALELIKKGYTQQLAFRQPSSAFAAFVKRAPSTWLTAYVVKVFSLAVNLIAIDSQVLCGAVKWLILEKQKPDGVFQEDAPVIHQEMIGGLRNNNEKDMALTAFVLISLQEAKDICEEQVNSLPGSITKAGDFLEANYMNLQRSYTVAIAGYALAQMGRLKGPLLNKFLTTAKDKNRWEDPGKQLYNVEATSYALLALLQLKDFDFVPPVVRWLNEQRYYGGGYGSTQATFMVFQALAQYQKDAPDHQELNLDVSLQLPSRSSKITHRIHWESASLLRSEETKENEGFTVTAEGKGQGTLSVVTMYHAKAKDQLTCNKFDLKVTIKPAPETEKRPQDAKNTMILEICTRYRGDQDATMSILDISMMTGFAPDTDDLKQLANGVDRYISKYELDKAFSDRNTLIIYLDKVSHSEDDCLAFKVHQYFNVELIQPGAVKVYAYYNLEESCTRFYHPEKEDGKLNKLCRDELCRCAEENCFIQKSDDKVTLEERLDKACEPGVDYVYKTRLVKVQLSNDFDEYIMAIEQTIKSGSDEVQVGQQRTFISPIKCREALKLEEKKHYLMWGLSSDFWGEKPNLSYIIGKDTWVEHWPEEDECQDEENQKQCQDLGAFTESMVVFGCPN
Bridge positions count the residues as written; N and C are the ends. Square brackets hold non-standard residues; d marks the D form. Peptide text beside a SMILES is read from it. Trp(1-Me) = Cn1cc(C[C@H](N)C(=O)O)c2ccccc21; NMeI = CC[C@H](C)[C@H](NC)C(=O)O; Sar = CNCC(=O)O
Threshold check on Kd: strictly below 3 nM is fulfilled; on or above 3 nM is not fulfilled.

>>> assigned_label("CC[C@H](C)[C@H](NC(=O)CN)C(=O)N[C@H]1CSSC[C@@H](C(=O)N(C)[C@H](C(N)=O)[C@@H](C)CC)NC(=O)[C@H](CCCNC(=N)N)NC(=O)[C@H](Cc2c[nH]cn2)NC(=O)[C@H](C)NC(=O)CN(C)C(=O)[C@H](Cc2c[nH]c3ccccc23)NC(=O)[C@H](CC(=O)O)NC(=O)[C@H](CCC(N)=O)NC(=O)[C@H](Cc2cn(C)c3ccccc23)NC(=O)[C@H](C(C)C)NC1=O [peptide 2] (H-GICV[Trp(1-Me)]QDW[Sar]AHRC[NMeI]-NH2; disulfide 3-13)")
"fulfilled"
>>> assigned_label("CC[C@H](C)[C@H](NC(=O)[C@@H](N)[C@@H](C)O)C(=O)N[C@H]1CSSC[C@@H](C(=O)N(C)[C@H](C(N)=O)[C@@H](C)CC)NC(=O)[C@H](CCCNC(=N)N)NC(=O)[C@H](Cc2c[nH]cn2)NC(=O)[C@H](C)NC(=O)CN(C)C(=O)[C@H](Cc2c[nH]c3ccccc23)NC(=O)[C@H](CC(=O)O)NC(=O)[C@H](CCC(N)=O)NC(=O)[C@H](Cc2cn(C)c3ccccc23)NC(=O)[C@H](C(C)C)NC1=O [compound 8] (H-TICV[Trp(1-Me)]QDW[Sar]AHRC[NMeI]-NH2; disulfide 3-13)")
"fulfilled"
>>> assigned_label("CC[C@H](C)[C@H](NC)C(=O)N[C@H](C(=O)N[C@H]1CSSC[C@@H](C(=O)N(C)[C@H](C(N)=O)[C@@H](C)CC)NC(=O)[C@H](CCCNC(=N)N)NC(=O)[C@H](Cc2c[nH]cn2)NC(=O)[C@H](C)NC(=O)CN(C)C(=O)[C@H](Cc2c[nH]c3ccccc23)NC(=O)[C@H](CC(=O)O)NC(=O)[C@H](CCC(N)=O)NC(=O)[C@H](Cc2cn(C)c3ccccc23)NC(=O)[C@H](C(C)C)NC1=O)[C@@H](C)CC")
"fulfilled"
>>> assigned_label("CC[C@H](C)[C@H](NC)C(=O)N[C@H]1CSSC[C@@H](C(=O)N(C)[C@H](C(N)=O)[C@@H](C)CC)NC(=O)[C@H](CCCNC(=N)N)NC(=O)[C@H](Cc2c[nH]cn2)NC(=O)[C@H](C)NC(=O)CN(C)C(=O)[C@H](Cc2c[nH]c3ccccc23)NC(=O)[C@H](CC(=O)O)NC(=O)[C@H](CCC(N)=O)NC(=O)[C@H](Cc2cn(C)c3ccccc23)NC(=O)[C@H](C(C)C)NC1=O [peptide 1]")
"not fulfilled"
>>> assigned_label("CC[C@H](C)[C@H](NC(=O)[C@H](N)CC1CCCCC1)C(=O)N[C@H]1CSSC[C@@H](C(=O)N(C)[C@H](C(N)=O)[C@@H](C)CC)NC(=O)[C@H](CCCNC(=N)N)NC(=O)[C@H](Cc2c[nH]cn2)NC(=O)[C@H](C)NC(=O)CN(C)C(=O)[C@H](Cc2c[nH]c3ccccc23)NC(=O)[C@H](CC(=O)O)NC(=O)[C@H](CCC(N)=O)NC(=O)[C@H](Cc2cn(C)c3ccccc23)NC(=O)[C@H](C(C)C)NC1=O")
"fulfilled"
